Every entry's value here was drawn from patent US12257214B2.

tested on: SW948; assay: ATPlite cell IC50 screening, SW948; assay type: cell-based; settings: Homo sapiens; SW948, Colon adenocarcinoma; ATPlite luminescence
MEASUREMENT NAME: pIC50
Units for pIC50: none; it is -log10 of a concentration expressed in mol/L.

// query May I ask what pIC50 has been recorded for `OCC[C@H](O)[C@H](O)CO` ?
// result 2.60

====

system: SU-DHL-6; experiment: ATPlite cell IC50 screening, SU-DHL-6; format: cell-based; details: Homo sapiens; SU-DHL-6, Diffuse large B-cell lymphoma; ATPlite luminescence
MEASUREMENT NAME: pIC50
Units for pIC50: none; it is -log10 of a concentration expressed in mol/L.

// query # returns recorded pIC50 (system: SU-DHL-6) for `OCC[C@H](O)[C@H](O)CO`
// result 2.39

====

system: HL-60; experiment: ATPlite cell IC50 screening, HL-60; assay type: cell-based; settings: Homo sapiens; HL-60, Adult acute myeloid leukemia; ATPlite luminescence
MEASUREMENT NAME: pIC50
Units for pIC50: none; it is -log10 of a concentration expressed in mol/L.

// query May I ask what pIC50 has been recorded for `OCC[C@H](O)[C@H](O)CO` ?
// result 2.13

====

system: SW900; experiment: ATPlite cell IC50 screening, SW900; assay type: cell-based; conditions: Homo sapiens; SW900, Squamous cell lung carcinoma; ATPlite luminescence
MEASUREMENT NAME: pIC50
Units for pIC50: none; it is -log10 of a concentration expressed in mol/L.

// query May I ask what pIC50 has been recorded for OCC[C@H](O)[C@H](O)CO [2-deoxyribitol] ?
// result 2.50

====

test system: NCI-H460; test: ATPlite cell IC50 screening, NCI-H460; format: cell-based; details: Homo sapiens; NCI-H460, Large cell lung carcinoma; ATPlite luminescence
MEASUREMENT NAME: IC50
Report field: quantity (unit follows the number).

// query May I ask what IC50 has been recorded for `OCC[C@H](O)[C@H](O)CO` ?
// result 3.17 mM

====

test system: JAR; test: ATPlite cell IC50 screening, JAR; type: cell-based; conditions: Gestational choriocarcinoma, ATPlite luminescence
MEASUREMENT NAME: IC50 (mM)
Your answer should be a plain number; it is taken to be in mM.

// query May I ask what IC50 has been recorded for `OCC[C@H](O)[C@H](O)CO` ?
// result 3.6

====

system: RPMI-7951; assay: ATPlite cell IC50 screening, RPMI-7951; assay type: cell-based; conditions: Homo sapiens; RPMI-7951, Melanoma; ATPlite luminescence
MEASUREMENT NAME: IC50 (mM)
Your answer should be a plain number; it is taken to be in mM.

// query # returns recorded IC50 (system: RPMI-7951) for OCC[C@H](O)[C@H](O)CO [2-deoxyribitol]
// result 6.77

====

Test system: SR
Experiment: ATPlite cell IC50 screening, SR
Type: cell-based
Settings: Homo sapiens, Anaplastic large cell lymphoma, ATPlite luminescence
Protocol: In brief, the cells were cultures in relevant medium and treated with a range of 9 doses of 2-deoxyribitol, from 10 mM, 5 mM, 2.5 mM, 1.25 mM, 0.62 mM, 0.31 mM, 0.08 mM, and 0.04 mM. […] After 10 minutes of incubation in the dark, the luminescence was recorded on an Envision multimode reader (PerkinElmer). IC50 was determined in comparison with the control samples. […]
MEASUREMENT NAME: IC50 (mM)
Your answer should be a plain number; it is taken to be in mM.

// query May I ask what IC50 has been recorded for OCC[C@H](O)[C@H](O)CO [2-deoxyribitol] ?
// result 4.25

====

system: HCT-15; test: ATPlite cell IC50 screening, HCT-15; format: cell-based; details: Homo sapiens; HCT-15, Colon adenocarcinoma; ATPlite luminescence
MEASUREMENT NAME: IC50 (mM)
Your answer should be a plain number; it is taken to be in mM.

// query May I ask what IC50 has been recorded for OCC[C@H](O)[C@H](O)CO [2-deoxyribitol] ?
// result 7.7

====

test system: C-33 A; test: ATPlite cell IC50 screening, C-33 A; type: cell-based; details: Homo sapiens, Cervical squamous cell carcinoma, ATPlite luminescence
MEASUREMENT NAME: IC50 (mM)
Your answer should be a plain number; it is taken to be in mM.

// query May I ask what IC50 has been recorded for `OCC[C@H](O)[C@H](O)CO` ?
// result 7.6

====

test system: A-204; assay: ATPlite cell IC50 screening, A-204; type: cell-based; settings: Homo sapiens, A204; A-204, Embryonal rhabdomyosarcoma; ATPlite luminescence
MEASUREMENT NAME: IC50 (mM)
Your answer should be a plain number; it is taken to be in mM.

// query May I ask what IC50 has been recorded for `OCC[C@H](O)[C@H](O)CO` ?
// result 6.06

====

system: SW48; assay: ATPlite cell IC50 screening, SW48; type: cell-based; details: Homo sapiens; SW48, Colon adenocarcinoma; ATPlite luminescence
MEASUREMENT NAME: pIC50
Units for pIC50: none; it is -log10 of a concentration expressed in mol/L.

// query May I ask what pIC50 has been recorded for OCC[C@H](O)[C@H](O)CO [2-deoxyribitol] ?
// result 2.35

====

test system: A-172; experiment: ATPlite cell IC50 screening, A-172; format: cell-based; conditions: Homo sapiens; A-172, Glioblastoma; ATPlite luminescence
MEASUREMENT NAME: IC50

// query May I ask what IC50 has been recorded for OCC[C@H](O)[C@H](O)CO [2-deoxyribitol] ?
// result > 10 mM
